Some compounds, each annotated with its measured melting point.

{"sample_smiles": "C[C@H]1[C@H](O)C2(CC2)C(=O)N1c1ccc(C#N)c(C(F)(F)F)c1", "melting point": "109 to 110 °C"}
{"sample_smiles": "CCCCCC(=O)OCc1cc(O)ncn1", "melting point": "133 to 134 °C"}
{"sample_smiles": "COc1ccc2c(c1)CC(=O)N2Nc1ccncc1", "melting point": "169 to 171 °C"}

====

Quick reference for melting point among some compounds

{"compound": "CCCSC1(SCCC)CCC2C3CCC4=CC(=O)C=CC4(C)C3(F)C(O)CC21C (stereo not drawn)", "melting point": "235 to 237 °C"}
{"compound": "CC1SC(=O)C=NC1=O (stereo not drawn)", "melting point": "81 to 83 °C"}
{"compound": "COc1cc(C(=O)CCCC2CCCCC2)c(OC)cc1Cl", "melting point": "80 to 81 °C"}
{"compound": "O=C(Nc1ccc(Sc2c(O)c3c(Cl)cc(Cl)cc3[nH]c2=O)cc1)c1ccco1", "melting point": "296 to 300 °C"}
{"compound": "CCC(CC)c1ccc(Cl)c2nc3n(c12)CCCCN3c1ccc(C(=O)N(C)C)cc1C", "melting point": "113 to 114 °C"}
{"compound": "C/C(=C\\C(C)O)c1ccc(C2CCCCC2)cc1 (stereo not drawn)", "melting point": "67.5 to 68 °C"}
{"compound": "COC(=O)COc1ccc2cc(-c3ccc(-c4ccccc4)n3Cc3ccccc3)ccc2c1", "melting point": "101 to 102 °C"}
{"compound": "Cn1cncc1C(N)(c1ccc(Cl)cc1)c1ccc2c(c1)C(c1cccc(Cl)c1)=NCc1nnnn1-2 (stereo not drawn)", "melting point": "218 °C"}
{"compound": "CCn1cc(CC(=O)O)c(OCCCn2cc(C(=O)NCc3ccc(Cl)cc3Cl)c(OC(C)C)n2)n1", "melting point": "138 to 139 °C"}
{"compound": "CCC(=O)c1ncc(Nc2cc(C)[nH]n2)nc1Nc1ccc(F)cc1", "melting point": "208 to 210 °C"}
{"compound": "CN(N=C(Cl)c1c(F)cccc1Cl)S(=O)(=O)c1ccccc1", "melting point": "103 to 105 °C"}
{"compound": "c1csc(C2=NOCCS2)c1", "melting point": "86 to 89 °C"}
{"compound": "CC(C)OCCNC(=O)c1n[nH]cc1NC(=O)c1ccccn1", "melting point": "163 to 164 °C"}
{"compound": "COc1ccc(-c2c3c(nn2-c2ccccc2)-c2cccc(N)c2C3=O)cc1", "melting point": "273 °C"}
{"compound": "Nc1nc(-c2cc(Cl)ccc2Cl)nc(N2CCS(=O)(=O)CC2)n1", "melting point": "> 275 °C"}
{"compound": "C=CC(CC(O)C(CC1CCCCC1)NC(=O)C(Cc1ncc[nH]1)NC(=O)C(Cc1ccccc1)NC(=O)C(N)COC(C)(C)C)C(C)C (stereo not drawn)", "melting point": "103 °C"}
{"compound": "O=C(O)CC(Cc1ccccc1[N+](=O)[O-])C(=O)O (stereo not drawn)", "melting point": "135 to 138 °C"}
{"compound": "O=C(O)c1ccc(Cc2ccc([N+](=O)[O-])cc2)cn1", "melting point": "178 to 182 °C"}
{"compound": "O=C(NCCO)c1cccc(-c2cccc3nn(Cc4ccccc4)cc23)c1", "melting point": "166 to 167 °C"}
{"compound": "COc1ccc2nc(-c3ccc(C=C4C(=O)C5(C)CCC4C5(C)C)cc3)[nH]c2c1 (stereo not drawn)", "melting point": "138 to 142 °C"}
{"compound": "CCOC(=O)CSc1nc(Cl)c(C)c(Cl)n1", "melting point": "66 to 70 °C"}
{"compound": "Cc1cc(NC(=O)C(C)(O)COc2cc(F)cc(F)c2)ccc1[N+](=O)[O-] (stereo not drawn)", "melting point": "104 to 106 °C"}
{"compound": "CSC(=S)C1(c2ccccn2)CCCCS1 (stereo not drawn)", "melting point": "79 °C"}
{"compound": "COC(=O)CC/C(C)=C/Cc1c(N)c2c(c(C)c1OC)COC2=O", "melting point": "91 to 93 °C"}
{"compound": "Cc1c(-c2ccc(O)cc2)n(Cc2ccc(OCCN3CCCC3)cc2)c2ccc(O)cc12", "melting point": "105 to 110 °C"}
{"compound": "CC(C)Cn1c(=O)n(C)c(=O)c2c(Sc3ccccn3)c(Cc3cccc4ccccc34)sc21", "melting point": "148 to 149 °C"}
{"compound": "C=C1C2CCCCC2CC2C(OC)OCC12 (stereo not drawn)", "melting point": "53 to 55 °C"}
{"compound": "N#Cc1ccc(OCCCN2CCC(C(O)(c3ccc(F)cc3)c3ccc(F)cc3)CC2)cc1", "melting point": "107 to 108 °C"}

FYI, the data here is from a melting point compilation (Tetko et al.; mined from patent text by program, amines drawn as free bases though some values may be those of a salt).
